- Experimental target: Phosphatidylinositol 4,5-bisphosphate 3-kinase catalytic subunit delta isoform (Homo sapiens, UniProt O00329)
- Sequence (O00329 whole entry, canonical isoform): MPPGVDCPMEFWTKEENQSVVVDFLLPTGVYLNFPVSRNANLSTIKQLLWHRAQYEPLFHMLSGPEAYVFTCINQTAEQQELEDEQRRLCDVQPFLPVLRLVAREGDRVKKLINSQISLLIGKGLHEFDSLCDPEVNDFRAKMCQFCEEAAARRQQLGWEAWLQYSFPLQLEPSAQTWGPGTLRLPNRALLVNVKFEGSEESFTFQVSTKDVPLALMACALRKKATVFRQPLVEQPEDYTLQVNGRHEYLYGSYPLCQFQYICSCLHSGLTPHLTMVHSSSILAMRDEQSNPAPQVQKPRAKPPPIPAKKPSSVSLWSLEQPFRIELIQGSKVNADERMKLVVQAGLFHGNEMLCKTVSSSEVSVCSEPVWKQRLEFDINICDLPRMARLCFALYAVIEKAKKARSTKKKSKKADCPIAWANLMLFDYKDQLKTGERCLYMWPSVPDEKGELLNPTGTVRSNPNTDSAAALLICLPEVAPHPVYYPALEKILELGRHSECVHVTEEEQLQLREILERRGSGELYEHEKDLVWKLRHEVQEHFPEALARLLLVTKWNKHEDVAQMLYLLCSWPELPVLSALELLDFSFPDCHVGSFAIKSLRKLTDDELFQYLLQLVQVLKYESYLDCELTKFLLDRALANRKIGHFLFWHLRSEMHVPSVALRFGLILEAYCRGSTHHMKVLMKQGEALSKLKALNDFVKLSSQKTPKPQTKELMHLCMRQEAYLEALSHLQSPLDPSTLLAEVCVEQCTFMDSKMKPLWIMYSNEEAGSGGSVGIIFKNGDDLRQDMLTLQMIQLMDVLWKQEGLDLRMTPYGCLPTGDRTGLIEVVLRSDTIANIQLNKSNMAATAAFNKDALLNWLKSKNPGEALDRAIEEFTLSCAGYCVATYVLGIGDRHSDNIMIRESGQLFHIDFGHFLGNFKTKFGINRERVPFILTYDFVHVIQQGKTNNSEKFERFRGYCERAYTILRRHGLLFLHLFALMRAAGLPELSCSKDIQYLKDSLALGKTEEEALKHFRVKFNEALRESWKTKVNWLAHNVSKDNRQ
- Experimental details: Inhibition of PI3Kdelta (unknown origin) using PIP2 as substrate measured after 2 hrs by ADP-glo plus luminescence assay
Field: IC50. Provide a value for each of the compounds that follow.
The reply should be a number in nM, with the unit left off.

(Q) Give a short answer stating reported IC50 for Cc1c(CN2CCN(C(=O)c3cc4cccc(C(N)=O)c4o3)CC2)sc2c(N3CCOCC3)nc(-c3cnc(N)nc3)nc12 .
(A) 2.7

(Q) Input Cc1c(CN2CCN(C(=O)c3cc(Cc4n[nH]c(=O)c5ccccc45)ccc3F)CC2)sc2c(N3CCOCC3)nc(-c3cnc(N)nc3)nc12 , output reported IC50.
(A) 6.8

(Q) Item NC(=O)c1cccc2cc(C(=O)N3CCN(Cc4cc5nc(-c6cnc(N)nc6)nc(N6CCOCC6)c5o4)CC3)oc12 : provide IC50
(A) 4.3

(Q) Quick one: give measured IC50 for NC(=O)c1cccc2cc(C(=O)N3CCN(Cc4cc5nc(-c6cnc(N)nc6)nc(N6CCOCC6)c5s4)CC3)oc12
(A) 1.8

----------
- Experimental target: Poly [ADP-ribose] polymerase 1 (Homo sapiens, UniProt P09874)
- Sequence (P09874 whole entry): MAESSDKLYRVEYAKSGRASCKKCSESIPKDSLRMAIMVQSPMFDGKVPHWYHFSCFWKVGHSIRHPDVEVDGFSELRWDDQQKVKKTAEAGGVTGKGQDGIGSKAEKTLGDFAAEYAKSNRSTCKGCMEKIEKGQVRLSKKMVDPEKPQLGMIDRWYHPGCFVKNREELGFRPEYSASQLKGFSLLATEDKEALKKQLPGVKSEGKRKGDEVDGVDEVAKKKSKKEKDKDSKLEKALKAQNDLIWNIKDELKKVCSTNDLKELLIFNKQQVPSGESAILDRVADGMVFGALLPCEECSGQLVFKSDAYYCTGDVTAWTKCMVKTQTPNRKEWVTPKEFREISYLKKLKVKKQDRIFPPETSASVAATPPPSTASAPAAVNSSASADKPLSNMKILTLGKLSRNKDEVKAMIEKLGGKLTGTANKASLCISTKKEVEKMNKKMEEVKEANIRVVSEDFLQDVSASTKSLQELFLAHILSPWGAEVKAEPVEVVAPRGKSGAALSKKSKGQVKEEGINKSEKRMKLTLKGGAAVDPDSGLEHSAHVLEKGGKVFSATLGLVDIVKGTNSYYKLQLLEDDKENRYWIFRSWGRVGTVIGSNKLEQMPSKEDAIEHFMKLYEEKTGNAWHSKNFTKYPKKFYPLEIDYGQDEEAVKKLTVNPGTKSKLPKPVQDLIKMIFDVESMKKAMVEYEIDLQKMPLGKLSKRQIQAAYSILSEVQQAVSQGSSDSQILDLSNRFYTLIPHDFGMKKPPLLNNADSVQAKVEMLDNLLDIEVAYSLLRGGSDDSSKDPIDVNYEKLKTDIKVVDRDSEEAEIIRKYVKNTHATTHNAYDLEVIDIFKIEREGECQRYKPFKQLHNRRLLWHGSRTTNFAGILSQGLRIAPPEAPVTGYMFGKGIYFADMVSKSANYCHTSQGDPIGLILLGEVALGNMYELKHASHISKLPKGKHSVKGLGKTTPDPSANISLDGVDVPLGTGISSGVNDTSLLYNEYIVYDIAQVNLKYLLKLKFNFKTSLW
pIC50: −log10 of the molar value.
Where pIC50 equals or exceeds 8, the correct label is rule met; where it does not, the label is rule not met.

(Q) Identify whether the reported pIC50 of the following compound is 8 or greater: Cc1c(CN2CCN(C(=O)c3cc4cccc(C(N)=O)c4o3)CC2)sc2c(N3CCOCC3)nc(-c3ccc4cn[nH]c4c3)nc12
(A) rule not met

(Q) Assess whether reported pIC50 for Cc1c(CN2CCN(C(=O)c3cc4cccc(C(N)=O)c4o3)CC2)sc2c(N3CCOCC3)nc(-c3cnc(N)cc3C(F)(F)F)nc12 sits at 8 or higher.
(A) rule not met

(Q) Does the reported pIC50 for Cc1c(CN2CCN(C(=O)c3cc(Cc4n[nH]c(=O)c5ccccc45)ccc3F)CC2)sc2c(N3CCOCC3)nc(-c3cnc(N)nc3)nc12 fall at or above the 8 mark?
(A) rule met

(Q) Could you verify whether the entry Cc1c(CN2CCN(C(=O)c3cc(Cc4n[nH]c(=O)c5ccccc45)ccc3F)CC2)sc2c(N3CCOCC3)nc(-c3cnc(N)cc3C(F)(F)F)nc12 shows pIC50 of no less than 8?
(A) rule not met

(Q) Please check the record Cc1c(CN2CCN(C(=O)c3cc4cccc(C(N)=O)c4o3)CC2)sc2c(N3CCOCC3)nc(-c3cnc(N)nc3)nc12 and state if its pIC50 is at or above 8.
(A) rule met

(Q) Please check the record Cc1c(CN2CCN(C(=O)c3cc4cccc(C(N)=O)c4o3)CC2)sc2c(N3CCOCC3)nc(-c3cccc4[nH]ncc34)nc12 and state if its pIC50 is at or above 8.
(A) rule not met

----------
Test readout: IC50

(Q) Would you please give the reported IC50 of Cc1c(CN2CCN(C(=O)c3cc(Cc4n[nH]c(=O)c5ccccc45)ccc3F)CC2)sc2c(N3CCOCC3)nc(-c3cnc(N)nc3)nc12 with RAC-alpha serine/threonine-protein kinase (Homo sapiens)?
(A) > 100 µM

(Q) Quote IC50 with test system RAC-alpha serine/threonine-protein kinase (Homo sapiens) for Cc1c(CN2CCN(C(=O)c3cc4cccc(C(N)=O)c4o3)CC2)sc2c(N3CCOCC3)nc(-c3cnc(N)nc3)nc12
(A) > 100 µM

Sourced from ChEMBL document CHEMBL4813994
